Recorded values, source patent US20230146870A1.

system: cellular microtubules (HeLa cells); test: Pilot screen of NCI Diversity Set VI: inhibition of binding of PB-GABA-Taxol, with dose-response validation; details: HeLa cells, PB-GABA-Taxol
PROPERTY: IC50

Quick one: IC50 for `NC(=O)c1cc2c3ccccc3ccn2c1-c1ccccc1` ?
< 1000 nM

---

Experiment: Cytotoxicity assay, 48 h, flow cytometry
Type: cell-based
Conditions: human, HeLa cells, without verapamil
Procedure: Trypsinized HeLa cells were resuspended at 40,000 cells/mL in DMEM medium containing 10% FBS and seeded at 8,000 cells/200 μL/well in a treated 96-well plate. The cells were incubated for 16 h at 37° C. The medium was removed and DMEM medium containing 10% FBS treated with compounds (prepared as 3-fold serial dilutions, 0.1% DMSO content) was added. […] Cellular viabilities were analyzed by gating of cells that lack fluorescence of propidium iodide by flow cytometry.
PROPERTY: IC50 at 48 h (µM)
The reply should be a number in µM, with the unit left off.

Bench note: what IC50 at 48 h did `COc1cc2c(c(OC)c1OC)-c1ccc(OC)c(=O)cc1[C@@H](NC(C)=O)CC2` show?
0.02
